- assay system: human recombinant MC1R (CHO-K1 stable cell line, GenScript) (human, UniProt Q01726 1-317)
- Sequence (Q01726 whole entry): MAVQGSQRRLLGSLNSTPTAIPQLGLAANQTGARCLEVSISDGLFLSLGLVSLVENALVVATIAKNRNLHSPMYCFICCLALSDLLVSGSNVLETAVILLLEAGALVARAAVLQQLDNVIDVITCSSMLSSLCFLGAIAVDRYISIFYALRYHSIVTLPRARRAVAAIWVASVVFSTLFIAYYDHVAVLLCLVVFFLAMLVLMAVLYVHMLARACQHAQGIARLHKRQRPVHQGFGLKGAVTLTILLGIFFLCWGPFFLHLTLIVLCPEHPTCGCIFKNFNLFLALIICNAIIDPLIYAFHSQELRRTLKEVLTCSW
- assay: cell-based or functional assay
Starred links: 1 amine or outer side, 2 acyl side, 3 side chain; linkers in the order of their positions; H or OH if unused. Positions of bridges follow the written chain, without caps; N, C: chain ends. Non-standard residues stand in square brackets, D forms with d. Primed or numbered codes have the meaning given here. *: point of attachment. HyPA = 3,5-dihydroxyphenylacetic acid (N-terminal cap), O=C(Cc1cc(O)cc(O)c1)*; NMeW = CN[C@@H](Cc1c[nH]c2ccccc12)C(=O)O; Lys(N3) = [N-]=[N+]=NCCCC[C@H](N)C(=O)O; Phe(4-NH2) = Nc1ccc(C[C@H](N)C(=O)O)cc1; mXylylene = c1cc(C[*:1])cc(C[*:2])c1; R8 = C=CCCCCCC[C@@](C)(N)C(=O)O; PEG8′ = polyethylene glycol-8; S5 = C=CCCC[C@](C)(N)C(=O)O; Nle = CCCC[C@H](N)C(=O)O; Octanoyl = CCCCCCCC(=O)*; Pra = C#CC[C@H](N)C(=O)O
Rule: MC1R IC50 below 0.1 nM gives 1 (yes). Equal to or above 0.1 nM gives 0 (no).

{"columns": ["binder", "cat"],
 "data": [
  ["Ac-[Nle][Lys(N3)]H[dF]RW[Pra]K-NH2 (triazole 2-7) [KR-037]", "1 (yes)"],
  ["HyPA-[Nle][Lys(N3)]H[dF]RW[Pra]K-NH2 (triazole 2-7; not fully specified; printed as HyPA-Nle-[Lys(N3)-His-DPhe-Arg-Trp-Pra]-Lys-NH2) [KR-062]", "1 (yes)"],
  ["Ac-SYSMEHFRWGKP-NH2 [KR-005]", "1 (yes)"]
]}

Q: Consider the binder Ac-SMEHFRWGKPV-NH2 [KR-002] . Is its MC1R IC50 strictly less than 0.1 nM?
A: 0 (no)

Q: Can you check Ac-[R8]EHFRWG[S5]-NH2 (staple 1-8; SMILES CC(=O)N[C@]1(C)CCCCCCC=CCCC[C@@](C)(C(N)=O)NC(=O)CNC(=O)[C@H](Cc2c[nH]c3ccccc23)NC(=O)[C@H](CCCNC(=N)N)NC(=O)[C@H](Cc2ccccc2)NC(=O)[C@H](Cc2c[nH]cn2)NC(=O)[C@H](CCC(=O)O)NC1=O) [KR-015] next?
A: 0 (no)

Q: Can you check Ac-[Nle][Lys(N3)][Phe(4-NH2)][dF]RW[Pra]-NH2 (triazole 2-7) [KR-047] next?
A: 0 (no)

Q: Can you check Ac-[Nle][Lys(N3)]H[dF]R[NMeW][Pra]-NH2 (triazole 2-7) [KR-046] next?
A: 0 (no)

Q: Can you check Ac-[Nle]CH[dF]RWC-NH2 (linker 2-7 via mXylylene) [KR-040] next?
A: 0 (no)

Q: Can you check {Octanoyl-PEG8′}-GGSYSMEHFRWGKPV-NH2 [KR-017] next?
A: 0 (no)
